tested on: NCI-H460 lung; experiment: NCI tumour cell line growth inhibition, 48 h
ENDPOINT_NAME: TGI (µM)
Numbers only; they are read as µM.

Use these answered entries as a reference point.
COc1ccc2c(c1)/C(=C\c1c(Cl)nc3sc(C)cn13)C(=O)N2 ... 12.3
O=C(CSc1ccc(Cl)cc1)Nc1ccc(-c2nc3ccccc3s2)c(Cl)c1 ... 16
COc1ccc(-c2nnc(COc3ccc(C(=O)/C=C/c4ccco4)cc3)o2)cc1 ... 14

Attention now turns to another entry.
The compound listed as "C=C1C(=O)O[C@H]2[C@H]1CC/C(COC(=O)c1c[nH]c3ccccc13)=C\CC[C@@]1(C)O[C@@H]21" has a reported TGI of 3.18

====

tested on: EKVX NSCLC; assay: NCI tumour cell line growth inhibition, 48 h
ENDPOINT_NAME: GI50

Use these answered entries as a reference point.
CC(=O)[C@@]12O[C@@H]1CC1C3CCC4=CC(O)CCC4(C)C3CCC12C (some centres not stated) ... > 100 µM
ClCc1cccc(Cn2cnc3ncnc(Cl)c32)c1 ... 13.7 µM
Cn1cnc([N+](=O)[O-])c1S(=O)(=O)Oc1cccc2ccccc12 ... 13.9 µM
O=C(/C=C/c1ccncc1)c1cc(Cl)ccc1O ... 17.2 µM
[Cl-].[La+3].[O-]/N=C(\c1ccccc1)c1ccccn1.[O-]/N=C(\c1ccccc1)c1ccccn1.[O-]/N=C(\c1ccccc1)c1ccccn1 ... 40.6 µM

The compound listed as "CCN1CCN(c2nc(C)cc(N(CCNc3ccnc4cc(Cl)ccc34)Cc3ccc4c(c3)OCO4)n2)CC1" has a reported GI50 of 3.14 µM

The compound listed as "COc1cc(/C=C/c2cc(O)c(C(C)=O)c(O)c2)cc2c1O[C@]1(C)CC[C@@H](O)C(C)(C)[C@H]1C2" has a reported GI50 of 13.1 µM

====

Each entry below lists one item and its recorded TGI value.
test system: A498 renal; assay: NCI tumour cell line growth inhibition, 48 h
Numbers only; they are read as µM.

Use these answered entries as a reference point.
COC(=O)C1=C(C)NC(C)=C(C(=O)OCCCN2CCC(c3ccccc3)(c3ccccc3)CC2)C1c1cccc([N+](=O)[O-])c1 (stereo not given) ... 8.69
OCc1ccc(-c2ccc(-c3ccc(CO)s3)o2)s1 ... 0.0278
CC(=O)[C@@]12O[C@@H]1CC1C3CCC4=CC(O)CCC4(C)C3CCC12C (stereo not given in full) ... 59.1
CCCCCCCCC/C=C1\CCC(CN2CCOCC2)C1=O (stereo not given) ... 24.5
O=[N+]([O-])c1ccc(Oc2c(Cl)cc(S(=O)(=O)/N=C(\NO)Nc3ccc(Cl)cc3)cc2Cl)cc1 ... 23.3

Attention now turns to another entry.
The compound listed as "Nc1ncnc2n[nH]c(Nc3ccc(F)cc3)c12" has a reported TGI of 92.8

====

system: MDA-MB-435
Classes to choose from: active, inactive

Solved cases below.
COc1ccc(-c2nnc(COc3ccc(NC(=O)Nc4cc(C(F)(F)F)cc(C(F)(F)F)c4)cc3F)o2)cc1 ... inactive
Cc1cc2c(cc1Cl)SC(N(N(C)C)S(=O)(=O)c1ccc(Cl)cc1)=NS2(=O)=O ... inactive
Nc1ncnc2c1nnn2C1OC(CO)C(O)C1O (stereo not given) ... active
CCN1CCN(c2nc(C)cc(N(CCNc3ccnc4cc(Cl)ccc34)Cc3ccc4c(c3)OCO4)n2)CC1 ... inactive

Moving on to the next compound.
Query string: Query: recorded result category for "Fc1cc2[nH]ncc2c2c3c(c(-c4cn[nH]c4)nc12)CCCC3" in this test
Result string: inactive

====

test system: M19-MEL melanoma; assay: NCI tumour cell line growth inhibition, 48 h
Each entry below lists one item and its recorded TGI value.
Numbers only; they are read as µM.

[Cl-].[La+3].[O-]/N=C(\c1ccccc1)c1ccccn1.[O-]/N=C(\c1ccccc1)c1ccccn1.[O-]/N=C(\c1ccccc1)c1ccccn1 ... 50
Cn1cnc([N+](=O)[O-])c1Sc1nc2ccccc2[nH]1 ... 29.7
O=C(/C=C\c1ccc(Cl)c(Cl)c1)c1ccc(Cl)cc1Cl ... 81.1
CCCCCCCCC/C=C1\CCC(CN2CCOCC2)C1=O (stereo unspecified) ... 10.4

Attention now turns to another entry.
The compound listed as "CC(C)(C)OC(=O)N[C@H]1CC2(C=C(Cl)C(=O)C(Cl)=C2)OC1=O" has a reported TGI of 30.9

====

test system: PC-3 prostate; assay: NCI tumour cell line growth inhibition, 48 h
ENDPOINT_NAME: TGI

N=C(N)SCc1ccc2c(c1)Sc1ccccc1O2 ... 16.5 µM
CCN(CCCN(CC)C(=O)Nc1c(C)cccc1C)C(=O)Nc1c(C)cccc1C ... > 100 µM
CCN(CC)c1ccc(-c2cc(-c3cc(OC)c(OC)c(OC)c3)nc(N3CCOCC3)c2C#N)cc1 ... > 100 µM

The compound listed as CCCC(=O)OC1CC(n2cc(F)c(=O)[nH]c2=O)OC1COP(=O)(OCC(Cl)(Cl)Cl)OCC(Cl)(Cl)Cl (stereo not given) has a reported TGI of > 100 µM

The compound listed as "O=C(/C=C/c1ccc(Cl)cc1)c1ccc(Nc2ccnc3cc(Cl)ccc23)cc1" has a reported TGI of > 100 µM

The compound listed as "O=C(/C=C/c1ccncc1)c1cc(Cl)ccc1O" has a reported TGI of 33.6 µM

====

test system: OVCAR-5 ovarian; assay: NCI tumour cell line growth inhibition, 48 h
ENDPOINT_NAME: TGI

Oc1ccc([I+]c2ccccc2)cc1O ... > 100 µM
CC(=O)[C@@]12O[C@@H]1CC1C3CCC4=CC(O)CCC4(C)C3CCC12C (stereo not given in full) ... 88.3 µM
O=c1cc(-c2ccccc2)oc2cc(OCCCOc3ccc4c(=O)cc(-c5ccccc5)oc4c3)ccc12 ... > 100 µM
Cc1cc2c3c(nc4ccccc42)C(=O)c2ccccc2-c3n1 ... > 100 µM
CCOC(=O)C1=C(C)C2C=C(c3cccs3)CC(c3ccc(Cl)cc3)=C2OC1=O (stereo not given) ... > 100 µM

The molecule listed as "COc1ccc(-c2nnc(COc3ccc(C(=O)/C=C/c4ccco4)cc3)o2)cc1" has a reported TGI of 19.1 µM

The molecule listed as "O=C(/C=C/c1ccc(Cl)cc1)c1ccc(Nc2ccnc3cc(Cl)ccc23)cc1" has a reported TGI of 68.5 µM

The molecule listed as "CCOC(=O)Cn1c(=O)c2nc(SC)sc2n(-c2ccccc2)c1=O" has a reported TGI of > 100 µM

The molecule listed as "CC(C)OP(=O)(OC(C)C)C(=NCCN=C(NNc1ccc([N+](=O)[O-])cc1)P(=O)(OC(C)C)OC(C)C)NNc1ccc([N+](=O)[O-])cc1" has a reported TGI of > 100 µM

The molecule listed as C/C(=N\NC(=S)NC(CCC(=O)O)C(=O)O)c1ccccn1 (stereo not given) has a reported TGI of > 100 µM

====

tested on: DU-145 prostate; test: NCI tumour cell line growth inhibition, 48 h
Each entry below lists one item and its recorded TGI value.

The compound listed as "COc1cccc(CCCNC(=O)Cc2cc(OC)c(OC)cc2CO)c1" has a reported TGI of > 100 µM

The compound listed as "O=S(=O)(CCn1c(Sc2ccccc2)c(Sc2ccccc2)c2ccccc21)c1ccccc1" has a reported TGI of > 100 µM

====

Each entry below lists one item and its recorded TGI value.
system: HOP-62 NSCLC; test: NCI tumour cell line growth inhibition, 48 h
Numbers only; they are read as µM.

Use these answered entries as a reference point.
COc1cc(C2c3cc4c(cc3OC(NN)C2C)OCO4)cc(OC)c1OC (centres undefined) ... 8.55
Cc1cc(/C=C/c2ccc3cc(N(C)C)ccc3[n+]2C)c(C)n1-c1ccccc1 ... 1.03
N#Cc1c(-c2ccccc2)/c(=C\Nc2ccc(F)cc2)c(=O)n2c1nc1ccccc12 ... 10.8
CCOC(=O)C(=C=C=C(c1ccccc1)c1ccccc1)C(=O)OCC ... 45.2

Attention now turns to another entry.
The molecule listed as "CCN(CC)/C(SCc1ccccc1)=C(\C(Cl)=C(Cl)Cl)[N+](=O)[O-]" has a reported TGI of 45.6

====

system: RXF 393 renal; assay: NCI tumour cell line growth inhibition, 48 h
ENDPOINT_NAME: TGI

The compound listed as "O=C(CSc1ccc(Cl)cc1)Nc1ccc(-c2nc3ccccc3s2)c(Cl)c1" has a reported TGI of 55.8 µM

====

system: T-47D breast; experiment: NCI tumour cell line growth inhibition, 48 h
Each entry below lists one item and its recorded TGI value.

COc1ccc2c(c1)/C(=C\c1c(Cl)nc3sc(C)cn13)C(=O)N2 ... 14.6 µM

Attention now turns to another entry.
The compound listed as "CO[C@H]1/C=C(/C)CCC[C@H](C)[C@H](O)[C@@H](C)C(=O)C(C)(C)[C@@H](O)CC(=O)O[C@@H]1/C(C)=C/c1csc(C)n1" has a reported TGI of > 100 µM
